# system-name: HLA-B*57:01
# test-description: IEDB peptide-MHC binding, purified MHC/competitive/fluorescence; filed as Kd, often an IC50 or EC50 that approximates it; bounds were set here for any values at or beyond the usual limits of such assays
# condition-label: source organism: Choclo virus
pKd: −log10 of the molar value.
quantity-kind: pKd

Request: Given the sequence "KACDLAMCY" , what is its reported pKd?
Result: ≤ 4.70

###

# system-name: HLA-A*02:01
# test-description: IEDB peptide-MHC binding, purified MHC/direct/fluorescence; filed as Kd, often an IC50 or EC50 that approximates it; bounds were set here for any values at or beyond the usual limits of such assays
# condition-label: source organism: Bacillus anthracis
quantity-kind: Kd

Request: Suppose we examine the sequence "KLYVNGKAY" ; what Kd value has been reported?
Result: ≥ 20 µM

###

# system-name: HLA-B*35:01
# test-description: IEDB peptide-MHC binding, purified MHC/competitive/radioactivity; filed as Kd, often an IC50 or EC50 that approximates it; bounds were set here for any values at or beyond the usual limits of such assays
# condition-label: source organism: Hepacivirus hominis
quantity-kind: Kd (µM)
Numbers only here, please. The scale is µM.

Request: Consider the sequence shown here: "RPALVFDIT" What is its recorded Kd?
Result: 2.08

###

# system-name: HLA-B*15:01
# test-description: IEDB peptide-MHC binding, purified MHC/competitive/fluorescence; filed as Kd, often an IC50 or EC50 that approximates it; bounds were set here for any values at or beyond the usual limits of such assays
# condition-label: source organism: Escherichia coli E22
pKd: −log10 of the molar value.
quantity-kind: pKd

Request: Any idea what pKd was measured for "EMFIIKYFK" ?
Result: ≤ 4.70

###

Reported pKd values are given for each entry in this list.
# system-name: HLA-A*68:02
# test-description: IEDB peptide-MHC binding, purified MHC/direct/fluorescence; filed as Kd, often an IC50 or EC50 that approximates it; bounds were set here for any values at or beyond the usual limits of such assays
# condition-label: source organism: Camelpox virus M-96
pKd: −log10 of the molar value.

>>> data_value("WENGFKVVL")
"≤ 4.70"

Note: attention shifts to another entry.
Request: Requested read-out: pKd. Entry: "LLRDKDGVY"
Result: ≤ 4.70

###

# system-name: HLA-A*29:02
# test-description: IEDB peptide-MHC binding, purified MHC/direct/fluorescence; filed as Kd, often an IC50 or EC50 that approximates it; bounds were set here for any values at or beyond the usual limits of such assays
# condition-label: source organism: Brucella suis
quantity-kind: Kd

Request: For the sequence shown here, "YQRRRRFAI" , give the reported Kd.
Result: ≥ 20 µM

###

# system-name: HLA-B*27:05
# test-description: IEDB peptide-MHC binding, purified MHC/direct/fluorescence; filed as Kd, often an IC50 or EC50 that approximates it; bounds were set here for any values at or beyond the usual limits of such assays
# condition-label: source organism: Bacillus licheniformis
quantity-kind: Kd

Request: Given "VQIPEKKCF" , state its recorded Kd.
Result: ≥ 20 µM

###

# system-name: HLA-B*44:02
# test-description: IEDB peptide-MHC binding, purified MHC/direct/fluorescence; filed as Kd, often an IC50 or EC50 that approximates it; bounds were set here for any values at or beyond the usual limits of such assays
# condition-label: source organism: Camelpox virus M-96
pKd: −log10 of the molar value.
quantity-kind: pKd

Request: Which pKd value is on record for "WENGFKVVL" ?
Result: ≤ 4.70

###

# system-name: HLA-A*68:01
# test-description: IEDB peptide-MHC binding, purified MHC/competitive/radioactivity; bounds were set here for any values at or beyond the usual limits of such assays
# condition-label: source organism: Hepacivirus hominis
quantity-kind: IC50 (nM)
Answer format: numeric, nM implied, no suffix.

Request: Find the measured IC50: item "QLFTFSPRR" , target or system HLA-A*68:01.
Result: 2.6

###

Property: pKd; scope: individual sequences
# system-name: HLA-B*15:17
# test-description: IEDB peptide-MHC binding, purified MHC/competitive/fluorescence; filed as Kd, often an IC50 or EC50 that approximates it; bounds were set here for any values at or beyond the usual limits of such assays
# condition-label: source organism: Zaire ebolavirus
pKd: −log10 of the molar value.

Request: // query pKd value for entry "APFARLLNL"
Result: ≤ 4.70

Request: Return reported pKd; argument: "GHMMVIFRL"
Result: ≤ 4.70

Request: Which pKd is reported for this sequence? "MHYKLDEVL"
Result: ≤ 4.70

###

# system-name: HLA-B*44:02
# test-description: IEDB peptide-MHC binding, purified MHC/competitive/radioactivity; filed as Kd, often an IC50 or EC50 that approximates it; bounds were set here for any values at or beyond the usual limits of such assays
# condition-label: source organism: Dengue virus 2 Jamaica/1409/1983
quantity-kind: Kd (nM)
Report the figure in nM without appending any unit label.

>>> data_value("GESSPNPTI")
83.5
>>> data_value("LEENVEVEIW")
124

Request: Suppose we examine the sequence "EEQTLTILI" ; what Kd value has been reported?
Result: 14

###

# system-name: HLA-B*40:01
# test-description: IEDB peptide-MHC binding, purified MHC/direct/fluorescence; filed as Kd, often an IC50 or EC50 that approximates it; bounds were set here for any values at or beyond the usual limits of such assays
# condition-label: source organism: Orthohantavirus hantanense
pKd: −log10 of the molar value.
quantity-kind: pKd

Request: Notebook entry, HLA-B*40:01 assay: pKd of "IRKPKHLYV" = ?
Result: ≤ 4.70

###

# system-name: HLA-B*57:01
# test-description: IEDB peptide-MHC binding, purified MHC/competitive/radioactivity; filed as Kd, often an IC50 or EC50 that approximates it; bounds were set here for any values at or beyond the usual limits of such assays
# condition-label: source organism: Dengue virus 3 Sri Lanka/1266/2000
quantity-kind: Kd (nM)
Give a bare numeral; the unit nM is implied.

Request: Looking for the measured Kd of "KAAVEDEEF" , can you help?
Result: 1670

###

# system-name: HLA-B*73:01
# test-description: IEDB peptide-MHC binding, purified MHC/competitive/fluorescence; filed as Kd, often an IC50 or EC50 that approximates it; bounds were set here for any values at or beyond the usual limits of such assays
# condition-label: source organism: Escherichia coli O157:H7 str. Sakai
quantity-kind: pKd
Expect pKd as a plain number equal to -log10 of the molar concentration.

Request: Form field: reported pKd of "NEWYVQPQA"
Result: 7.17

###

# system-name: HLA-B*18:01
# test-description: IEDB peptide-MHC binding, purified MHC/direct/fluorescence; filed as Kd, often an IC50 or EC50 that approximates it; bounds were set here for any values at or beyond the usual limits of such assays
# condition-label: source organism: Influenza A virus (A/duck/Mongolia/47/2001(H7N1))
quantity-kind: Kd

Request: # input sequence: "FLKDVMESM" ; wanted: its Kd
Result: ≥ 20 µM

###

# system-name: HLA-B*07:02
# test-description: IEDB peptide-MHC binding, purified MHC/competitive/fluorescence; bounds were set here for any values at or beyond the usual limits of such assays
# condition-label: source organism: Zaire ebolavirus
Overview of recorded pIC50 for various sequences
Remember the convention: pIC50 equals -log10 of concentration in molar.

>>> data_value("APFARLLNL")
6.20

Alright, here's another sequence for you.
Request: Record lookup: for HLA-B*07:02, what pIC50 belongs to "MVTLRKERL" ?
Result: 4.98

###

# system-name: HLA-B*57:01
# test-description: IEDB peptide-MHC binding, purified MHC/competitive/radioactivity; filed as Kd, often an IC50 or EC50 that approximates it; bounds were set here for any values at or beyond the usual limits of such assays
# condition-label: source organism: Dengue virus 2 Jamaica/1409/1983
Catalogue of sequences with associated Kd
Entry rule: numbers only, all in µM.

As a guide, the following entries are already answered.
>>> data_value("ILIGVIITW")
0.352
>>> data_value("IGLTSRATW")
0.00687
>>> data_value("NASGNIVSSV")
0.464
>>> data_value("PASIAARGYI")
0.365
>>> data_value("RVLNLVENW")
0.00243
>>> data_value("ETSWHYDQDH")
2.31
>>> data_value("RTSKKRSWPL")
0.69

// below: Kd requested for another sequence
Request: State the recorded Kd for this entry: "KGKRIEPSW"
Result: 0.0131

###

# system-name: HLA-A*01:01
# test-description: IEDB peptide-MHC binding, purified MHC/direct/fluorescence; filed as Kd, often an IC50 or EC50 that approximates it; bounds were set here for any values at or beyond the usual limits of such assays
# condition-label: source organism: Yersinia enterocolitica
pKd: −log10 of the molar value.
quantity-kind: pKd

Request: I have this sequence here, "YIFRNTINM" , and I need its recorded pKd.
Result: ≤ 4.70
